Each recorded value in this set is attributed to patent US20240254182A1.

The entries below are paired with their reported KD fold change (against WT:WT).
Biological target: T1, WT G-CSFR(Ig-CRH), purified, tag cleaved (human, UniProt Q99062 26-331)
T1 construct: also called G-CSFRWT; wild type G-CSFR(Ig-CRH)
T1 chain: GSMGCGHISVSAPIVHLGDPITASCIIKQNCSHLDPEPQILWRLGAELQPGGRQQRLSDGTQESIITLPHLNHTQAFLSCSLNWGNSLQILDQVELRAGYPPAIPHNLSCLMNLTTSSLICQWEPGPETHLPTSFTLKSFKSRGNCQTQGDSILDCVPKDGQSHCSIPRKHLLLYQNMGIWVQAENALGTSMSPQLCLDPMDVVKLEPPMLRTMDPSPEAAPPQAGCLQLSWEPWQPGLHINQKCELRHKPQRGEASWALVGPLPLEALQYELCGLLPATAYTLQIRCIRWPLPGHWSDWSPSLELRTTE
Test: SPR, WT G-CSFR(Ig-CRH) amine-coupled, G-CSFE injected, single-cycle kinetics
Number in fold, nothing else.

Sample records with KD fold change (against WT:WT):
>  <binder>
design 134 G-CSFE, tag cleaved (ligand) TPLGPASSLPQSFLLKCLEQVRKIQGDGAALQEKLCATYKLCHPERLVLLGHSLGIPWAPLSSCPSQALQLAGCLSQLHSGLFLYQGLLQALEGISPELGPTLDTLQKDVARFATTIWQQMRRLGMAPALQPTQGAMPAFASAFQRRAGGVLVASHLQSFLEVSYRVLRHLAQAAAENLYFQ

>  <number>
465

$$$$
>  <binder>
design 34 G-CSFE, tag cleaved (ligand, also called design 34 G-CSFE mutant) TPLGPASSLPQSFLLKCLEQVRKIQGDGAALQEKLCATYKLCHPEELVLLGHSLGIPWAPLSSCPSQALQLAGCLSQLHSGLFLYQGLLQALEGISPELGPTLDTLQKDVARFATTIWQQMRRLGMAPALQPTQGAMPAFASAFQRRAGGVLVASHLQSFLEVSYRVLRHLAQAAAENLYFQ

>  <number>
33

$$$$

Now, please, on to the next binder.
**Q:** I would be grateful if you could share the reported KD fold change (against WT:WT) for design 117 G-CSFE, tag cleaved (ligand, also called design 117 G-CSFE mutant) TPLGPASSLPQSFLLKCLEQVRKIQGDGAALQEKLCATYKLCHPERLVLLGHSLGIPWAPLSSCPSQALQLAGCLSQLHSGLFLYQGLLQALEGISPELGPTLDTLQLDVADFATTIWQQMRRLGMAPALQPTQGAMPAFASAFQRRAGGVLVASHLQSFLEVSYRVLRHLAQAAAENLYFQ .
**A:** 3.4
